test system: SARS-CoV-2 Lineage A (Wa); assay: Antiviral activity against SARS-CoV-2 Lineage A (Wa) in Calu3; format: cell-based; conditions: Severe acute respiratory syndrome coronavirus 2, Calu-3; Lineage A (Wa), Calu3; read-out: Antiviral Activity Against SARS-CoV-2 Variants in Calu3 EC50, Lineage A (Wa)
measuredProperty: pEC50
One number for each entry, as −log10 of the molar value.

Give SARS-CoV-2 Lineage A (Wa) pEC50 for the following molecule: CCC(CC)COC(=O)[C@H](C)N[P@](=O)(OC[C@H]1O[C@@](C#N)(c2ccc3c(N)ncnn23)[C@H](O)[C@@H]1O)Oc1ccccc1 [Remdesivir, reference compound] 7.00

---

test system: SARS-CoV-2 Lineage A (Eng); assay: Antiviral activity against SARS-CoV-2 Lineage A (Eng) in Vero; type: cell-based; settings: Severe acute respiratory syndrome coronavirus 2; Lineage A (Eng), Vero; read-out: Antiviral Activity Against SARS-CoV-2 Variants in Vero EC50, Lineage A (Eng)
measuredProperty: EC50 (nM)
Give bare numbers, in nM.

For the molecule CCC(CC)COC(=O)[C@H](C)N[P@](=O)(OC[C@H]1O[C@@](C#N)(c2ccc3c(N)ncnn23)[C@H](O)[C@@H]1O)Oc1ccccc1 [Remdesivir, reference compound] , give its measured EC50 value. 300

---

tested on: SARS-CoV-2 Lineage A (Eng); test: Antiviral activity against SARS-CoV-2 Lineage A (Eng) in Vero; format: cell-based; conditions: Severe acute respiratory syndrome coronavirus 2, Vero, read-out: Antiviral Activity Against SARS-CoV-2 Variants in Vero EC50, Lineage A (Eng)
measuredProperty: EC50 (nM)
One number for each entry, in nM.

For the compound O=c1ccn([C@@H]2S[C@H](CO)[C@@H](O)[C@H]2O)c(=O)[nH]1 [Compound 8] , give its measured EC50 value. 200

---

tested on: SARS-CoV-2 variant Delta; assay: microbe, parasite or virus in culture; format: cell-based; settings: Severe acute respiratory syndrome coronavirus 2, Calu-3, read-out: Antiviral Activity Against SARS-CoV-2 Variants in Calu3 EC50, Delta
measuredProperty: pEC50
One number for each entry, as −log10 of the molar value.

For the compound O=c1ccn([C@@H]2S[C@H](CO)[C@@H](O)[C@H]2O)c(=O)[nH]1 , give its measured pEC50 value. 5.74

---

system: SARS-CoV-2 variant Delta; assay: microbe, parasite or virus in culture; type: cell-based; details: Severe acute respiratory syndrome coronavirus 2, Calu-3; Delta, Calu3; read-out: Antiviral Activity Against SARS-CoV-2 Variants in Calu3 EC50, Delta
measuredProperty: EC50 (µM)
Answers are plain numbers, in µM.

For the molecule CCC(CC)COC(=O)[C@H](C)N[P@](=O)(OC[C@H]1O[C@@](C#N)(c2ccc3c(N)ncnn23)[C@H](O)[C@@H]1O)Oc1ccccc1 [Remdesivir, reference compound] , give its measured EC50 value. 0.3

---

test system: SARS-CoV-2 variant Gamma; experiment: microbe, parasite or virus in culture; assay type: cell-based; details: Severe acute respiratory syndrome coronavirus 2, Calu-3, read-out: Antiviral Activity Against SARS-CoV-2 Variants in Calu3 EC50, Gamma
measuredProperty: EC50 (nM)
Answers are plain numbers, in nM.

For the compound O=c1ccn([C@@H]2S[C@H](CO)[C@@H](O)[C@H]2O)c(=O)[nH]1 , give its measured EC50 value. 40

---

test system: SARS-CoV-2 variant Alpha; assay: microbe, parasite or virus in culture; assay type: cell-based; conditions: Severe acute respiratory syndrome coronavirus 2, Calu-3, read-out: Antiviral Activity Against SARS-CoV-2 Variants in Calu3 EC50, Alpha
measuredProperty: EC50

For the molecule O=c1ccn([C@@H]2S[C@H](CO)[C@@H](O)[C@H]2O)c(=O)[nH]1 , give its measured EC50 value. 300 nM

---

test system: SARS-CoV-2 Lineage A (Wa); assay: Antiviral activity against SARS-CoV-2 Lineage A (Wa) in Calu3; type: cell-based; settings: Severe acute respiratory syndrome coronavirus 2, Calu-3, read-out: Antiviral Activity Against SARS-CoV-2 Variants in Calu3 EC50, Lineage A (Wa)
measuredProperty: EC50 (nM)
Numbers only, in nM.

For the molecule O=c1ccn([C@@H]2S[C@H](CO)[C@@H](O)[C@H]2O)c(=O)[nH]1 [Compound 8] , give its measured EC50 value. 100

---

tested on: SARS-CoV-2 variant Gamma; experiment: microbe, parasite or virus in culture; type: cell-based; details: Severe acute respiratory syndrome coronavirus 2, Calu-3; Gamma, Calu3; read-out: Antiviral Activity Against SARS-CoV-2 Variants in Calu3 EC50, Gamma
measuredProperty: pEC50
Give bare numbers, as −log10 of the molar value.

For the compound CCC(CC)COC(=O)[C@H](C)N[P@](=O)(OC[C@H]1O[C@@](C#N)(c2ccc3c(N)ncnn23)[C@H](O)[C@@H]1O)Oc1ccccc1 [Remdesivir, reference compound] , give its measured pEC50 value. 6.59

---

system: SARS-CoV-2 variant Alpha; assay: microbe, parasite or virus in culture; type: cell-based; conditions: Severe acute respiratory syndrome coronavirus 2; Alpha, Vero; read-out: Antiviral Activity Against SARS-CoV-2 Variants in Vero EC50, Alpha
measuredProperty: EC50 (nM)
One number for each entry, in nM.

For the compound CCC(CC)COC(=O)[C@H](C)N[P@](=O)(OC[C@H]1O[C@@](C#N)(c2ccc3c(N)ncnn23)[C@H](O)[C@@H]1O)Oc1ccccc1 [Remdesivir, reference compound] , give its measured EC50 value. 400

---

system: SARS-CoV-2 variant Gamma; test: microbe, parasite or virus in culture; assay type: cell-based; conditions: Severe acute respiratory syndrome coronavirus 2, Vero, read-out: Antiviral Activity Against SARS-CoV-2 Variants in Vero EC50, Gamma
measuredProperty: EC50

For the compound O=c1ccn([C@@H]2S[C@H](CO)[C@@H](O)[C@H]2O)c(=O)[nH]1 , give its measured EC50 value. 0.2 µM

These measurements were taken from patent US20240216413A1.
